Entries annotated with measured T/C
System: P388 leukemia ip, CD2F1 mice, survival T/C
method_notes: NCI In Vivo Anticancer Drug Screen. Data for tumor model P388 Leukemia (intraperitoneal) in CD2F1 (CDF1) mice
condition_set: endpoint: median survival time; dose: 50.0 mg/kg/injection; schedule: Q01DX009 (ip); vehicle: saline; higher = longer survival
Method: The antitumor activity of compounds was measured in mice bearing transplantable tumors. Survival or tumor size were measured and the results are expressed as the measurement made in the treated group (T) divided by the measurement made in the vehicle treated control group (C). The tumor model used in this assay is P388 Leukemia (intraperitoneal) in CD2F1 (CDF1) mice
Toxic doses and inconclusive results are not listed.

Examples with answers:
In [3]: df
Out[3]:
                                   compound   endpoint_result
0  O=C(O)c1cc(N2C(=O)c3ccc4c5ccc6c7c(ccc(c8ccc(c3c48)C2=O)c75)C(=O)N(c2ccc(O)c(C(=O)O)c2)C6=O)ccc1O   98 % of control
1  COc1ccc(C(=O)N/N=C2\C(=O)c3c(C)cc(C)cc3CC2(C)C)cc1  100 % of control
2                   c1ccc2sc(N3CCCCC3)nc2c1  104 % of control
3               CCOC(=O)/C=C(/CC(=O)OCC)OCC  100 % of control

Consider the compound shown here: NC(C(=O)O)C(C(F)(F)F)C(F)(F)F (centres undefined) What is its recorded T/C?
101 % of control

Name the reported T/C value associated with the compound O=C(CC(=O)N1CCN(c2ccccn2)CC1)N1CCN(c2ccccn2)CC1
101 % of control

Name the recorded T/C for Cc1cccc(Nc2cc(Cl)nc(SCC(=O)O)n2)c1C .
100 % of control

Quick one: T/C of C1CCC(N=C(NC2CCCCC2)N2CCOCC2)CC1 ?
89 % of control

Field request: T/C | item: Cc1ccnc(Sc2ccc([N+](=O)[O-])cc2[N+](=O)[O-])n1
102 % of control

// returns reported T/C for input CC(=O)N(Cc1cnc2nc(N)[nH]c(=O)c2n1)c1ccc(C(=O)NC(CCC(=O)O)C(=O)O)cc1 (centres undefined)
100 % of control

What measured T/C goes with S=C(Nc1ccc2c(c1)OCO2)SCc1ccc(Cl)c(Cl)c1 ?
106 % of control

T/C lookup needed for CN(C)Cc1ccc2ccccc2c1O , thanks.
104 % of control

Would you mind telling me what T/C value was observed for CC(NC(=O)C(N)Cc1ccc(O)cc1)C(=O)NCC(=O)N(C)C(Cc1ccccc1)C(=O)NC(CO)CCS(C)=O (centres undefined) ?
115 % of control

Requested read-out: T/C. Entry: C=C[Se](=C(C(C)=O)C(C)=O)c1ccccc1 (centres undefined)
92 % of control

###

Tested on: P388 leukemia ip, CD2F1 mice, survival T/C
method_notes: NCI In Vivo Anticancer Drug Screen. Data for tumor model P388 Leukemia (intraperitoneal) in CD2F1 (CDF1) mice
condition_set: endpoint: median survival time; dose: 100.0 mg/kg/injection; schedule: Q01DX009 (ip); vehicle: saline with Tween-80; higher = longer survival
Inconclusive results and toxic doses are left out.
value_type: T/C

What measured T/C goes with CC(C)(C)OC(=O)NC(CCCCNC(=O)C(F)(F)F)C(=O)ON1C(=O)CCC1=O (stereo not given) ?
99 % of control

I have this compound here, O=C1NC(=O)C2CCCc3cccc1c32 (stereo not given) , and I need its recorded T/C.
97 % of control

Need T/C, item CO/C=C1\SC(=S)N(c2ccc(NC(C)=O)cc2)C1=O
92 % of control

Item under review: O=c1[nH]cc(I)cc1I . Reported T/C?
95 % of control

Which T/C value belongs to CC1(C)OC(=O)C(Cc2c[nH]c3ccccc23)C(=O)O1 ?
100 % of control

What does the record list as T/C for CCC[CH2][Sn]([CH2]CCN(C)C)([CH2]CCN(C)C)[CH2]CCN(C)C ?
107 % of control

I have this compound here, O=C1NN(c2ccccc2)C(=O)/C1=C\c1ccccc1 , and I need its recorded T/C.
94 % of control

Fill in: T/C of Clc1nc(Cl)nc(N2CCCc3ccccc32)n1 is ___
96 % of control

Form field: reported T/C of O=C(O)c1ccc2c(c1)C(=O)c1c(O)ccc(O)c1C2=O
103 % of control

What measured T/C goes with CCCc1n(O)c(C)c(C)[n+]1[O-] ?
100 % of control

Give its T/C value. Item: O=c1[nH]c(=S)nc2nc[nH]n12
100 % of control

###

Below, each entry is listed with its recorded T/C.
Test system: P388 leukemia ip, CD2F1 mice, survival T/C
method_notes: NCI In Vivo Anticancer Drug Screen. Data for tumor model P388 Leukemia (intraperitoneal) in CD2F1 (CDF1) mice
condition_set: endpoint: median survival time; dose: 25.0 mg/kg/injection; schedule: Q01DX009 (ip); vehicle: saline with Tween-80; higher = longer survival
Inconclusive results and toxic doses are left out.

Some compounds with known T/C results, for comparison:
                                   compound  value_type   endpoint_result
0  COc1ccc(C2=NC(c3ccccc3)NC(c3ccccc3)/C2=C/c2ccccc2)cc1 (stereo not given)         T/C  105 % of control
1           [Se]c1nc(N2CCOCC2)ncc1-c1ccccc1         T/C   95 % of control
2                    CCSC(=N)N=Nc1ccc(O)cc1         T/C  100 % of control
3     c1ccc(N(c2ccccc2)c2nnnn2-c2ccccc2)cc1         T/C   98 % of control

Attention now turns to another entry.
// fetch P388 leukemia ip, CD2F1 mice, survival T/C T/C for CCCCCCCOC(=O)c1ccc(O)cc1
100 % of control

###

Measured T/C accompanies every entry in the list below.
Test system: P388 leukemia ip, CD2F1 mice, survival T/C
method_notes: NCI In Vivo Anticancer Drug Screen. Data for tumor model P388 Leukemia (intraperitoneal) in CD2F1 (CDF1) mice
condition_set: endpoint: median survival time; dose: 25.0 mg/kg/injection; schedule: Q04DX003 (ip); vehicle: saline with Tween-80; higher = longer survival
Toxic doses and inconclusive results are not listed.

>>> print(df.to_string())
                                   compound   endpoint_result
0  COC(=O)/C=C(\NC1CC(OC2C[C@](O)(C(C)=O)Cc3c(O)c4c(c(O)c32)C(=O)c2c(OC)cccc2C4=O)OC(C)C1O)C(=O)OC (stereo partly drawn)  121 % of control
1  [NH-]C(CC(N)=O)C(=O)O.[NH-]C(CC(N)=O)C(=O)O.[Pd+2] (stereo not drawn)  100 % of control

So what's the measured T/C for this one? O=C([O][Hg][CH2]C1COC([CH2][Hg][O]C(=O)c2ccccc2)CO1)c1ccccc1 (stereo not drawn)
104 % of control

###

Examples of compounds with documented T/C follow.
Test system: P388 leukemia ip, CD2F1 mice, survival T/C
method_notes: NCI In Vivo Anticancer Drug Screen. Data for tumor model P388 Leukemia (intraperitoneal) in CD2F1 (CDF1) mice
condition_set: endpoint: median survival time; dose: 50.0 mg/kg/injection; schedule: Q01DX005 (ip); vehicle: saline with Tween-80; higher = longer survival
Description: The antitumor activity of compounds was measured in mice bearing transplantable tumors. Survival or tumor size were measured and the results are expressed as the measurement made in the treated group (T) divided by the measurement made in the vehicle treated control group (C). The tumor model used in this assay is P388 Leukemia (intraperitoneal) in CD2F1 (CDF1) mice
Toxic doses and inconclusive results are not listed.

Past entries and their recorded results:
>>> print(df.to_string())
                                   compound   endpoint_result
0  ClC1CCCCC1C(C1CCCCC1)C1CCCCC1 (stereo not given)   98 % of control
1  Nc1nnc2nc(C(C(=O)c3ccc(Cl)cc3Cl)c3nc4nnc(N)n4[nH]c3=O)c(=O)[nH]n12   92 % of control
2  CC(C)CC(NC(=O)OCc1ccccc1)C(=O)NC(Cc1c[nH]c2ccccc12)C(=O)O (stereo not given)  100 % of control
3                   CSc1nc(N)cc(C(F)(F)F)n1   88 % of control
4  Cc1ccccc1CN1CC2=C(CCN(Cc3ccccc3)C2=O)N2CCN=C12   96 % of control
5                             CC(C)(C)SSCCN  103 % of control
6      CCN(CC)c1cc2oc3cc(N)cc(=N)c-3nc2cc1C  112 % of control
7  CCC(C)C(NC(=O)OC(C)(C)c1ccc(-c2ccccc2)cc1)C(=O)O (stereo not given)   99 % of control

I'd like to know its T/C. The compound in question is COc1c2occc2c(N=Cc2c[nH]c3ccccc23)c2ccc(=O)oc12
92 % of control

I would be grateful if you could share the reported T/C for COc1cc(N=Nc2c(Cl)cc([N+](=O)[O-])cc2Cl)c(OC)cc1N=Nc1ccc(N)nc1N .
99 % of control
